- System: ES7 (Ewing's Sarcoma)
- assayDetails: combination Emax (second highest fraction inhibited in the dose matrix, 72 h); higher = more inhibition; extreme values may be limits of the assay
Param threshold (0.9) applies to combination Emax; output 1 when value >= threshold, 0 when value < threshold.

State whether the measured combination Emax reaches 0.9, counting equality as reaching it, for COc1nnc2ccc(N3CCC(c4ccc(OCCN5CCN(C)C(=O)[C@H]5C)cc4)CC3)nn12 [AZD5153] + CC1(C)CCC(CN2CCN(c3ccc(C(=O)NS(=O)(=O)c4ccc(NCC5CCOCC5)c([N+](=O)[O-])c4)c(Oc4cnc5[nH]ccc5c4)c3)CC2)=C(c2ccc(Cl)cc2)C1 [Venetoclax] (first compound max 1 µM, 7x7, partner max 1 µM)
0

Could you do the same for Cc1c2c(nn1C)CSCc1cc(n(C)n1)CSc1cc(c3ccccc3c1)OCCCc1c(C(=O)O)n(C)c3c-2c(Cl)ccc13 [AZD5991] + C=CCn1c(=O)c2cnc(Nc3ccc(N4CCN(C)CC4)cc3)nc2n1-c1cccc(C(C)(C)O)n1 [AZD1775] (first compound max 1 µM, partner max 1 µM) , please?
0

Could you do the same for COc1cccc2c1C(=O)c1c(O)c3c(c(O)c1C2=O)C[C@@](O)(C(=O)CO)C[C@@H]3O[C@H]1C[C@H](N)[C@H](O)[C@H](C)O1 [Doxorubicin] + Cc1cc2ncnn2cc1Nc1ncc2c(n1)n(C1CCOCC1)c(=O)n2C [AZD7648] (first compound max 1 µM, 7x7, partner max 10 µM) , please?
1

Could you do the same for COc1nnc2ccc(N3CCC(c4ccc(OCCN5CCN(C)C(=O)[C@H]5C)cc4)CC3)nn12 [AZD5153] + Cc1c2c(nn1C)CSCc1cc(n(C)n1)CSc1cc(c3ccccc3c1)OCCCc1c(C(=O)O)n(C)c3c-2c(Cl)ccc13 [AZD5991] (first compound max 1 µM, 7x7, partner max 1 µM) , please?
1

Could you do the same for CC1(C)CCC(CN2CCN(c3ccc(C(=O)NS(=O)(=O)c4ccc(NCC5CCOCC5)c([N+](=O)[O-])c4)c(Oc4cnc5[nH]ccc5c4)c3)CC2)=C(c2ccc(Cl)cc2)C1 [Venetoclax] + CS(=O)(=O)CCNCc1ccc(-c2ccc3ncnc(Nc4ccc(OCc5cccc(F)c5)c(Cl)c4)c3c2)o1 [Lapatinib] (first compound max 1 µM, 7x7, partner max 10 µM) , please?
0
